# TEST SYSTEM: human Endothelial Differentiation G-protein Coupled Receptor 3 (EDG3), S1P3 receptor (Homo sapiens, UniProt Q99500)
# Construct: expressed in transfected cells; host or cells: GeneBLAzer EDG3-Ga15-NFAT-bla HEK 293T
# Sequence (Q99500 whole entry): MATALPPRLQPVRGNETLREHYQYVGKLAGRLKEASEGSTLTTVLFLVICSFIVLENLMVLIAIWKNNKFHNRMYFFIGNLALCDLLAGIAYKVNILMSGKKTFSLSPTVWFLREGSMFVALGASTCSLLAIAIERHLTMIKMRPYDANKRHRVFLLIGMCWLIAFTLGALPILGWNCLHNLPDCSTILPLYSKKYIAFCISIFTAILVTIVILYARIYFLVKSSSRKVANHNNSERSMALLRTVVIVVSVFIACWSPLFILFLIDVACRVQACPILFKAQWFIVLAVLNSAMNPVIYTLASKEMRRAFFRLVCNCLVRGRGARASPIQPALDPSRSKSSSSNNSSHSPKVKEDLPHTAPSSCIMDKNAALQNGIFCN
# TEST METHOD NOTES: S1P3 Assay (GeneBLAzer EDG3-Ga15-NFAT-bla HEK 293T beta-lactamase reporter, agonist dose response)
# Format: cell-based
# RECORDED CONDITIONS: EDG3-Ga15-NFAT-bla HEK 293T cells, blue/green emission ratio, 10 point dose response, free base or salt form; read-out: pEC50 (S1P3 assay) (converted)
Structures can show the parent of a compound that is named as a salt.
Listed compounds paired with reported EC50

These recorded examples may help you get a feel for the data.
CCc1c(CCN2CCC[C@H]2C(=O)O)cccc1-c1nnc(-c2ccc(CC(C)C)c(C#N)c2)s1; > 10 µM
CCc1c(CCN2CCC[C@H]2C(=O)O)cccc1-c1nsc(-c2ccc(OC(C)C)c(Cl)c2)n1 [Example 65, trifluoroacetate]; > 3.16 µM
CCc1c(CC2CCN(CC(=O)O)CC2)cccc1-c1nsc(-c2ccc(OC(C)C)c(Cl)c2)n1 [Example 105, trifluoroacetate]; > 10 µM

Now for a further compound.
Prompt: Given `COc1c(CCN2CCC(C(=O)O)CC2)cc(F)cc1-c1nnc(-c2ccc(OC(C)C)c(C(F)(F)F)c2)s1` , state its recorded EC50.
Response: > 10 µM

---

# TEST SYSTEM: human Endothelial Differentiation Gene 1 (EDG1), S1P1 receptor (Homo sapiens, UniProt P21453)
# Construct: TEV protease site; Gal4-VP16 transcription factor; expressed in transfected cells; host or cells: EDG1-bla/U2OS (Tango GPCR-bla U2OS parental cell line)
# Sequence (P21453 whole entry, the tested form may be a part): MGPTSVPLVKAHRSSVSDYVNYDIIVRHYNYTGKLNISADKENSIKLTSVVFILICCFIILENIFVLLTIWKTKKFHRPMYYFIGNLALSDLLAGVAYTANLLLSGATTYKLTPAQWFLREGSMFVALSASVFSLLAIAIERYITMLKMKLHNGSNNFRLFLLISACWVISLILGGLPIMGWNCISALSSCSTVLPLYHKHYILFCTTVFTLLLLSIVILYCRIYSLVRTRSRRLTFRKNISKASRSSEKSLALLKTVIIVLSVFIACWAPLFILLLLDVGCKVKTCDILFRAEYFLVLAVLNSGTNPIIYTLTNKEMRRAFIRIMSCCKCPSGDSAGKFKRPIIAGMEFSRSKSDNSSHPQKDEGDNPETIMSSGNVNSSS
# TEST METHOD NOTES: S1P1 Assay (Tango EDG1-bla/U2OS beta-lactamase reporter, agonist dose response)
# Assay type: cell-based
# RECORDED CONDITIONS: EDG1-bla/U2OS cells, blue/green emission ratio, 10 point dose response, free base or salt form; read-out: pEC50 (S1P1 assay) (converted)
Structures can show the parent of a compound that is named as a salt.
Listed molecules paired with reported EC50

These recorded examples may help you get a feel for the data.
CCc1c(CCCN2CCC(C(=O)O)C2)cccc1-c1cnc(-c2ccc(OC(C)C)c(C#N)c2)s1 (stereo not drawn); ≤ 10 nM
CCc1c(CCN2CC(C(=O)O)C2)cccc1-c1nnc(-c2ccc(OC(C)C)c(C(F)(F)F)c2)s1 [Example 7, trifluoroacetate]; < 1 nM
CCc1c(CCN2CCC(C(=O)O)C2)cccc1-c1nsc(-c2ccc(CC(C)C)c(C#N)c2)n1 (stereo not drawn); ≤ 10 nM
CCc1c(CN2CCC[C@H](C(=O)O)C2)cccc1-c1nnc(-c2ccc(CC(C)C)c(C#N)c2)s1; < 1 nM
CCc1c(CCN2CCC(C(=O)O)CC2)cccc1-c1nnc(-c2ccc(CC(C)C)c(C#N)c2)s1; < 1 nM

Prompt: Given CCc1c(CCN2CCCC(C(=O)O)C2)cccc1-c1nnc(-c2ccc(OC(C)C)c(Cl)c2)s1 (stereo not drawn) , state its recorded EC50.
Response: < 1 nM

Prompt: Given CCc1c(CCN2CCCC(C(=O)O)C2)cccc1-c1nnc(-c2ccc(CC(C)C)c(C#N)c2)s1 (stereo not drawn) , state its recorded EC50.
Response: < 1 nM

---

# TEST SYSTEM: human Endothelial Differentiation G-protein Coupled Receptor 3 (EDG3), S1P3 receptor (Homo sapiens)
# Construct: expressed in transfected cells; host or cells: GeneBLAzer EDG3-Ga15-NFAT-bla HEK 293T
# TEST METHOD NOTES: S1P3 Assay (GeneBLAzer EDG3-Ga15-NFAT-bla HEK 293T beta-lactamase reporter, agonist dose response)
# Format: cell-based
# RECORDED CONDITIONS: EDG3-Ga15-NFAT-bla HEK 293T cells, blue/green emission ratio, 10 point dose response, free base or salt form; read-out: pEC50 (S1P3 assay) (converted)
Counter-ions that a name gives are not always drawn.
MEASURED QUANTITY: EC50

These recorded examples may help you get a feel for the data.
CCc1c(CCN2CC[C@H](C(=O)O)C2)cccc1-c1nsc(-c2ccc(OC(C)C)c(Cl)c2)n1 [Example 68]; > 3.16 µM
CCc1c(CN2CCC(C(=O)O)CC2)cccc1-c1nnc(-c2ccc(OC(C)C)c(Cl)c2)s1 [Example 3, trifluoroacetate]; > 3.16 µM
CCc1c(CN2CCC[C@H]2C(=O)O)cccc1-c1cnc(-c2ccc(OC(C)C)c(C#N)c2)s1 [Example 81, trifluoroacetate]; > 10 µM
CCc1c(CCN2CCC[C@@H]2C(=O)O)cccc1-c1cnc(-c2ccc(OC(C)C)c(C#N)c2)s1 [Example 89]; > 10 µM

Now for a further compound.
Prompt: Given CCc1c(CCCN2CCC(C(=O)O)C2)cccc1-c1cnc(-c2ccc(OC(C)C)c(C#N)c2)s1 (centres unmarked) [Example 94] , state its recorded EC50.
Response: > 3.16 µM

---

# TEST SYSTEM: human Endothelial Differentiation Gene 1 (EDG1), S1P1 receptor (Homo sapiens, UniProt P21453)
# Construct: TEV protease site; Gal4-VP16 transcription factor; expressed in transfected cells; host or cells: EDG1-bla/U2OS (Tango GPCR-bla U2OS parental cell line)
# TEST METHOD NOTES: S1P1 Assay (Tango EDG1-bla/U2OS beta-lactamase reporter, agonist dose response)
# Assay type: cell-based
# RECORDED CONDITIONS: EDG1-bla/U2OS cells, blue/green emission ratio, 10 point dose response, free base or salt form; read-out: pEC50 (S1P1 assay) (converted)
Counter-ions that a name gives are not always drawn.
MEASURED QUANTITY: EC50

CCc1c(CCN2CCC[C@H]2C(=O)O)cccc1-c1nnc(-c2ccc(CC(C)C)c(C#N)c2)s1; ≤ 10 nM

Prompt: Given CCc1c(CN2CCC(C(=O)O)CC2)cccc1-c1cnc(-c2ccc(OC(C)C)c(Cl)c2)s1 [Example 36, trifluoroacetate] , state its recorded EC50.
Response: < 100 nM

Prompt: Given CCc1c(CCCN2CC(C(=O)O)C2)cccc1-c1cnc(-c2ccc(OC(C)C)c(C#N)c2)s1 [Example 93, trifluoroacetate] , state its recorded EC50.
Response: < 1 nM

---

# TEST SYSTEM: human Endothelial Differentiation Gene 1 (EDG1), S1P1 receptor (Homo sapiens, UniProt P21453)
# Construct: TEV protease site; Gal4-VP16 transcription factor; expressed in transfected cells; host or cells: EDG1-bla/U2OS (Tango GPCR-bla U2OS parental cell line)
# TEST METHOD NOTES: S1P1 Assay (Tango EDG1-bla/U2OS beta-lactamase reporter, agonist dose response)
# Type: cell-based
# RECORDED CONDITIONS: EDG1-bla/U2OS cells, blue/green emission ratio, 10 point dose response, free base or salt form; read-out: pEC50 (S1P1 assay) (converted)
Where a name gives a salt, the structure may show the parent alone.
Listed compounds paired with reported EC50

These recorded examples may help you get a feel for the data.
CCc1c(CCN2CCC(CC(=O)O)CC2)cccc1-c1nsc(-c2ccc(OC(C)C)c(Cl)c2)n1; ≤ 10 nM
CCc1c(CCN2CCC[C@H](C(=O)O)C2)cccc1-c1nnc(-c2ccc(OC(C)C)c(Cl)c2)s1; < 1 nM
CCc1c(CN2CCC[C@H](C(=O)O)C2)cccc1-c1nnc(-c2ccc(OC(C)C)c(Cl)c2)s1; ≤ 10 nM
CCc1c(CCN2CCCC(C(=O)O)C2)cccc1-c1nsc(-c2ccc(OC(C)C)c(Cl)c2)n1 (stereo not shown); < 1 nM
CCc1c(CCN2CC(C(=O)O)C2)cccc1-c1nsc(-c2ccc(OC(C)C)c(C#N)c2)n1 [Example 26, trifluoroacetate]; < 1 nM

Prompt: Given CCc1c(CCN2CCC[C@H]2C(=O)O)cccc1-c1nsc(-c2ccc(OC(C)C)c(Cl)c2)n1 [Example 65, trifluoroacetate] , state its recorded EC50.
Response: ≤ 10 nM

Prompt: Given `CCc1c(CCN2CCC[C@H](C(=O)O)C2)cccc1-c1nsc(-c2ccc(CC(C)C)c(C#N)c2)n1` , state its recorded EC50.
Response: < 1 nM

---

# TEST SYSTEM: human Endothelial Differentiation G-protein Coupled Receptor 3 (EDG3), S1P3 receptor (Homo sapiens)
# Construct: expressed in transfected cells; host or cells: GeneBLAzer EDG3-Ga15-NFAT-bla HEK 293T
# TEST METHOD NOTES: S1P3 Assay (GeneBLAzer EDG3-Ga15-NFAT-bla HEK 293T beta-lactamase reporter, agonist dose response)
# Type: cell-based
# RECORDED CONDITIONS: EDG3-Ga15-NFAT-bla HEK 293T cells, blue/green emission ratio, 10 point dose response, free base or salt form; read-out: pEC50 (S1P3 assay) (converted)
Counter-ions that a name gives are not always drawn.
MEASURED QUANTITY: EC50

These recorded examples may help you get a feel for the data.
CCc1c(CN2CC(C(=O)O)C2)cccc1-c1nnc(-c2ccc(CC(C)C)c(C#N)c2)s1 [Example 9, trifluoroacetate]; > 10 µM
CCc1c(CN2C[C@H](O)C[C@H]2C(=O)O)cccc1-c1cnc(-c2ccc(OC(C)C)c(C#N)c2)s1; > 10 µM
CCc1c(CCN2CCC(C(=O)O)CC2)cccc1-c1nnc(-c2ccc(CC(C)C)c(C#N)c2)s1; > 3.16 µM
COc1c(CCN2CC(C(=O)O)C2)cc(F)cc1-c1nnc(-c2ccc(CC(C)C)c(C#N)c2)s1; > 10 µM
CCc1c(CCN2CCC(CC(=O)O)CC2)cccc1-c1nsc(-c2ccc(OC(C)C)c(Cl)c2)n1; > 3.16 µM
CCc1c(CN2CCC(C(=O)O)CC2)cccc1-c1nnc(-c2ccc(CC(C)C)c(C#N)c2)s1 [Example 8, trifluoroacetate]; > 3.16 µM
CCc1c(CCN2CC(C(=O)O)C2)cccc1-c1nsc(-c2ccc(OC(C)C)c(C#N)c2)n1 [Example 26, trifluoroacetate]; > 3.16 µM
CCc1c(CN2CCCC(C(=O)O)C2)cccc1-c1nnc(-c2ccc(CC(C)C)c(C#N)c2)s1 (centres unmarked); > 10 µM

Now for a further molecule.
Prompt: Given CCc1c(CCN2CCC(C(=O)O)CC2)cccc1-c1nsc(-c2cnc(OC(C)C)c(Cl)c2)n1 [Example 75, trifluoroacetate] , state its recorded EC50.
Response: > 3.16 µM
